# Protocol Details: In vitro metabolic stability using human liver microsomes
# Setup Conditions: 1 μM, 60 min
Some compounds, each annotated with its measured Mean % Remaining vs T = 0 min, Human Liver Microsomes.
Property Label: Mean % Remaining vs T = 0 min, Human Liver Microsomes (%)

1. C#Cc1ccc2c(c1)C(c1ccccc1F)=NCc1c(C(=O)NC)ncn1-2 [HJ-I-037]: 92.7
2. C#Cc1ccc2c(c1)C(c1ccccc1)=NCc1c(C(=O)O)ncn1-2 [XHe-II-053 Acid]: 111
3. C#Cc1ccc2c(c1)C(c1ccccn1)=NCc1c(C(=O)OCC)ncn1-2 [HZ-166]: 80.4
4. C#Cc1ccc2c(c1)C(c1ccccc1F)=NCc1c(C(=O)OCC)ncn1-2 [JY-XHe-053]: 0.27
5. C#Cc1ccc2c(c1)C(c1ccccn1)=NCc1c(C(=O)SC)ncn1-2 [ZJW-II-065]: 82.5
6. C#Cc1ccc2c(c1)C(c1ccccn1)=NCc1c(-c3nc(C(C)C)no3)ncn1-2 [ZJW-II-040]: 89.4
7. C#Cc1ccc2c(c1)C(c1ccccc1)=NCc1c(C(=O)OCC)ncn1-2 [XHe-II-053]: 1.46
8. C#Cc1ccc2c(c1)C(c1ccccc1F)=N[C@H](C)c1c(C(=O)OCC)ncn1-2 [SH-053-2′F-RCH3]: 86.9
9. C#Cc1ccc2c(c1)C(c1ccccn1)=NCc1c(C(=O)NC)ncn1-2 [HJ-I-40]: 136

###

Some molecules, each annotated with its measured Mean % Remaining vs T = 0 min, Human Liver Microsomes.
# Protocol Details: In vitro metabolic stability using human liver microsomes
# Setup Conditions: 10 μM, 60 min
Property Label: Mean % Remaining vs T = 0 min, Human Liver Microsomes (%)

1. C#Cc1ccc2c(c1)C(c1ccccn1)=NCc1c(-c3nc(C(C)C)no3)ncn1-2 [ZJW-II-040]: 95.1
2. C#Cc1ccc2c(c1)C(c1ccccn1)=NCc1c(C(=O)OCC)ncn1-2 [HZ-166]: 76.3
3. C#Cc1ccc2c(c1)C(c1ccccc1)=NCc1c(C(=O)O)ncn1-2 [XHe-II-053 Acid]: 95.0
4. C#Cc1ccc2c(c1)C(c1ccccc1F)=N[C@@H](C)c1c(C(=O)OCC)ncn1-2 [SH-053-2′F-SCH3]: 0.20

###

# Protocol Details: In vitro metabolic stability using human liver microsomes
# Setup Conditions: 10 μM, 15 min
Property Label: Mean % Remaining vs T = 0 min, Human Liver Microsomes (%)

1. C#Cc1ccc2c(c1)C(c1ccccn1)=NCc1c(-c3nc(C(C)C)no3)ncn1-2: 106
2. C#Cc1ccc2c(c1)C(c1ccccc1F)=NCc1c(C(=O)OCC)ncn1-2: 20.0
3. C#Cc1ccc2c(c1)C(c1ccccn1)=NCc1c(C(=O)NC)ncn1-2: 104
4. C#Cc1ccc2c(c1)C(c1ccccc1)=NCc1c(C(=O)OCCCOC(=O)c3ncn4c3CN(C)C(=O)c3cc(Cl)ccc3-4)ncn1-2: 107
5. C#Cc1ccc2c(c1)C(c1ccccn1)=NCc1c(C(=O)OCC)ncn1-2: 104
6. C#Cc1ccc2c(c1)C(c1ccccc1)=NCc1c(C(=O)O)ncn1-2: 95.6
7. C#Cc1ccc2c(c1)C(c1ccccc1)=NCc1c(C(=O)OCC)ncn1-2: 47.6
8. C#Cc1ccc2c(c1)C(c1ccccn1)=NCc1c(C(=O)SC)ncn1-2: 111
9. C#Cc1ccc2c(c1)C(c1ccccc1F)=N[C@H](C)c1c(C(=O)OCC)ncn1-2: 97.9
10. C#Cc1ccc2c(c1)C(c1ccccc1F)=N[C@@H](C)c1c(C(=O)OCC)ncn1-2: 11.7
11. C#Cc1ccc2c(c1)C(c1ccccc1F)=NCc1c(C(=O)NC)ncn1-2: 96.8
12. C#Cc1ccc2c(c1)C(c1ccccc1F)=NCc1c(C(=O)OCCCOC(=O)c3ncn4c3CN=C(c3ccccc3F)c3cc(C#C)ccc3-4)ncn1-2: 104

###

Some compounds, each annotated with its measured melting point.
Property Label: melting point

1. C#Cc1ccc2c(c1)C(c1ccccc1F)=NCc1c(C(=O)NC)ncn1-2: 235 to 236 °C
2. O=C(OCCCCOC(=O)c1ncn2c1[C@@H]1CCCN1C(=O)c1cc(Br)ccc1-2)c1ncn2c1C1CCCN1C(=O)c1cc(Br)ccc1-2 (stereo partly shown): 166 to 171 °C
3. CN1Cc2c(C(=O)N3CCN(C(=O)c4ncn5c4CN(C)C(=O)c4cc(Cl)ccc4-5)CC3)ncn2-c2ccc(Cl)cc2C1=O: 367 to 374 °C
4. CN1Cc2c(C(=O)OCCCCOC(=O)c3ncn4c3CN(C)C(=O)c3cc(Cl)ccc3-4)ncn2-c2ccc(Cl)cc2C1=O: 308 to 312 °C
5. C#Cc1ccc2c(c1)C(c1ccccc1)=NCc1c(C(=O)NC)ncn1-2: 237 to 238 °C
6. C#Cc1ccc2c(c1)C(c1ccccc1F)=N[C@@H](C)c1c(C(=O)OCCCCCOC(=O)c3ncn4c3CN(C)C(=O)c3cc(Cl)ccc3-4)ncn1-2: 157 to 162 °C (dec.)
7. C#Cc1ccc2c(c1)C(c1ccccc1F)=N[C@@H](C)c1c(C(=O)N3CCN(C(=O)c4ncn5c4[C@H](C)N=C(c4ccccc4F)c4cc(C#C)ccc4-5)CC3)ncn1-2: 180 to 190 °C

###

Some compounds, each annotated with its measured Mean % Remaining vs T = 0 min, Human Liver Microsomes.
# Protocol Details: In vitro metabolic stability using human liver microsomes
# Setup Conditions: 10 μM, 60 min
Property Label: Mean % Remaining vs T = 0 min, Human Liver Microsomes (%)

1. C#Cc1ccc2c(c1)C(c1ccccc1F)=NCc1c(C(=O)NC)ncn1-2 [HJ-I-037]: 103
2. C#Cc1ccc2c(c1)C(c1ccccn1)=NCc1c(C(=O)SC)ncn1-2 [ZJW-II-065]: 95.6
3. C#Cc1ccc2c(c1)C(c1ccccn1)=NCc1c(C(=O)NC)ncn1-2 [HJ-I-40]: 110
4. C#Cc1ccc2c(c1)C(c1ccccc1F)=NCc1c(C(=O)OCC)ncn1-2 [JY-XHe-053]: 0.56
5. C#Cc1ccc2c(c1)C(c1ccccc1)=NCc1c(C(=O)OCC)ncn1-2 [XHe-II-053]: 1.74

###

# Protocol Details: In vitro metabolic stability using human liver microsomes
# Setup Conditions: 10 μM, 30 min
Property Label: Mean % Remaining vs T = 0 min, Human Liver Microsomes

1. C#Cc1ccc2c(c1)C(c1ccccc1F)=NCc1c(C(=O)OCC)ncn1-2 [JY-XHe-053]: 3.60%
2. C#Cc1ccc2c(c1)C(c1ccccc1F)=NCc1c(C(=O)OCCCOC(=O)c3ncn4c3CN=C(c3ccccc3F)c3cc(C#C)ccc3-4)ncn1-2 [YT-III-271]: 102%
3. C#Cc1ccc2c(c1)C(c1ccccc1)=NCc1c(C(=O)OCC)ncn1-2 [XHe-II-053]: 13.9%
4. C#Cc1ccc2c(c1)C(c1ccccc1F)=N[C@@H](C)c1c(C(=O)OCC)ncn1-2 [SH-053-2′F-SCH3]: 1.72%

###

Property Label: melting point

1) C#Cc1ccc2c(c1)C(c1ccccn1)=NCc1c(C(=O)NC)ncn1-2 [HJ-I-40]: 215 to 216 °C
2) O=C(OCCCCCOC(=O)c1ncn2c1[C@@H]1CCCN1C(=O)c1cc(Br)ccc1-2)c1ncn2c1C1CCCN1C(=O)c1cc(Br)ccc1-2 (stereo partly shown): 157 to 161 °C
3) C#Cc1ccc2c(c1)C(c1ccccc1F)=NCc1c(C(=O)OCCCCCOC(=O)c3ncn4c3CN(C)C(=O)c3cc(Cl)ccc3-4)ncn1-2: 125 to 130 °C
4) C#Cc1ccc2c(c1)C(c1ccccc1F)=N[C@@H](C)c1c(C(=O)OCCCCOC(=O)c3ncn4c3[C@H](C)N=C(c3ccccc3F)c3cc(C#C)ccc3-4)ncn1-2: 158 to 160 °C
5) CN1Cc2c(C(=O)OCCCCCOC(=O)c3ncn4c3CN(C)C(=O)c3cc(Cl)ccc3-4)ncn2-c2ccc(Cl)cc2C1=O: 146 to 152 °C
6) C#Cc1ccc2c(c1)C(c1ccccc1)=NCc1c(C(=O)OCCCCCOC(=O)c3ncn4c3CN(C)C(=O)c3cc(Cl)ccc3-4)ncn1-2: 155 to 160 °C (dec.)
7) C#Cc1ccc2c(c1)C(c1ccccc1)=NCc1c(C(=O)OCCCCCOC(=O)c3ncn4c3CN=C(c3ccccc3F)c3cc(C#C)ccc3-4)ncn1-2: 145 to 150 °C

###

# Protocol Details: In vitro metabolic stability using human liver microsomes
# Setup Conditions: 1 μM, 30 min
Binarize Mean % Remaining vs T = 0 min, Human Liver Microsomes at 40%; below is satisfied, at or above is not satisfied.

1) C#Cc1ccc2c(c1)C(c1ccccn1)=NCc1c(C(=O)SC)ncn1-2: not satisfied
2) C#Cc1ccc2c(c1)C(c1ccccc1)=NCc1c(C(=O)OCC)ncn1-2: satisfied
3) C#Cc1ccc2c(c1)C(c1ccccn1)=NCc1c(-c3nc(C(C)C)no3)ncn1-2: not satisfied
4) C#Cc1ccc2c(c1)C(c1ccccn1)=NCc1c(C(=O)OCC)ncn1-2: not satisfied
5) C#Cc1ccc2c(c1)C(c1ccccc1F)=NCc1c(C(=O)OCC)ncn1-2: satisfied
6) C#Cc1ccc2c(c1)C(c1ccccn1)=NCc1c(C(=O)NC)ncn1-2: not satisfied
7) C#Cc1ccc2c(c1)C(c1ccccc1F)=N[C@@H](C)c1c(C(=O)OCC)ncn1-2: satisfied
